# Tested on: hTERT-HMEC
# measurement.notes: percentage of EdU-negative (G0-arrested) nuclei per well, 72 h; higher = more G0 arrest;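 note: secreted proteins added to cultured cells, EdU pulse at the end, nuclei found by Hoechst imaging, EdU status from nuclear versus surrounding ring intensity ratio, PBS as neutral control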
# test.context: protein concentration 0.3125 µM; reference: sequence is the full UniProt precursor, the tested protein was the secreted form or ectodomain

seq.string: MTCKMSQLERNIETIINTFHQYSVKLGHPDTLNQGEFKELVRKDLQNFLKKENKNEKVIEHIMEDLDTNADKQLSFEEFIMLMARLTWASHEKMHEGDEGPGHHHKPGLGEGTP
percentage of EdU-negative [%]: 5.25
//
seq.string: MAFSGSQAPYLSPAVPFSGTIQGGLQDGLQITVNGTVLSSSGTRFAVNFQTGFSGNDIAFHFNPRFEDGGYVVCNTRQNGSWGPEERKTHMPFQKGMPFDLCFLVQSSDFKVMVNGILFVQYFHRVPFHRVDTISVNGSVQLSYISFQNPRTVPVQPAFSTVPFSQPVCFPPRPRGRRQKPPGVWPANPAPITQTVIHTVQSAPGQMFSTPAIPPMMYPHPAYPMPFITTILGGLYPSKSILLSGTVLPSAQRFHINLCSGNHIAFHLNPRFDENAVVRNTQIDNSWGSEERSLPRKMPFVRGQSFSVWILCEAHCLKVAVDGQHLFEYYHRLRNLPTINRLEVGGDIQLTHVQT
percentage of EdU-negative [%]: 4.66

---

# System: hTERT-HMEC
# measurement.notes: percentage of EdU-negative (G0-arrested) nuclei per well, 72 h; higher = more G0 arrest
# test.context: protein concentration 0.357143 µM; reference: sequence is the full UniProt precursor, the tested protein was the secreted form or ectodomain
As shown below, each of these sequences has a reported percentage of EdU-negative value.
measurement.label: percentage of EdU-negative (%)

seq.string: MCLSHLENMPLSHSRTQGAQRSSWKLWLFCSIVMLLFLCSFSWLIFIFLQLETAKEPCMAKFGPLPSKWQMASSEPPCVNKVSDWKLEILQNGLYLIYGQVAPNANYNDVAPFEVRLYKNKDMIQTLTNKSKIQNVGGTYELHVGDTIDLIFNSEHQVLKNNTYWGIILLANPQFIS [Q9UNG2]
tested.on: hTERT-HMEC
measurement.label: percentage of EdU-negative
result: 7.64

seq.string: MTPPERLFLPRVCGTTLHLLLLGLLLVLLPGAQGLPGVGLTPSAAQTARQHPKMHLAHSTLKPAAHLIGDPSKQNSLLWRANTDRAFLQDGFSLSNNSLLVPTSGIYFVYSQVVFSGKAYSPKATSSPLYLAHEVQLFSSQYPFHVPLLSSQKMVYPGLQEPWLHSMYHGAAFQLTQGDQLSTHTDGIPHLVLSPSTVFFGAFAL
tested.on: hTERT-HMEC
measurement.label: percentage of EdU-negative
result: 6.94

seq.string: MWLLVSVILISRISSVGGEAMFCDFPKINHGILYDEEKYKPFSQVPTGEVFYYSCEYNFVSPSKSFWTRITCAEEGWSPTPKCLRLCFFPFVENGHSESSGQTHLEGDTVQIICNTGYRLQNNENNISCVERGWSTPPKCRSTISAEKCGPPPPIDNGDITSFLLSVYAPGSSVEYQCQNLYQLEGNNQITCRNGQWSEPPKCLDPCVISQEIMEKYNIKLKWTNQQKLYSRTGDIVEFVCKSGYHPTKSHSFRAMCQNGKLVYPSCEEK
tested.on: hTERT-HMEC
measurement.label: percentage of EdU-negative
result: 17.5

seq.string: MAAAAATKILLCLPLLLLLSGWSRAGRADPHSLCYDITVIPKFRPGPRWCAVQGQVDEKTFLHYDCGNKTVTPVSPLGKKLNVTTAWKAQNPVLREVVDILTEQLRDIQLENYTPKEPLTLQARMSCEQKAEGHSSGSWQFSFDGQIFLLFDSEKRMWTTVHPGARKMKEKWENDKVVAMSFHYFSMGDCIGWLEDFLMGMDSTLEPSAGAPLAMSSGTTQLRATATTLILCCLLIILPCFILPGI [Q9BZM5]
tested.on: hTERT-HMEC
measurement.label: percentage of EdU-negative
result: 5.89

---

# Tested on: MCF7
# measurement.notes: percentage of EdU-negative (G0-arrested) nuclei per well, 72 h; higher = more G0 arrest
# test.context: protein concentration 0.225 µM; reference: sequence is the full UniProt precursor, the tested protein was the secreted form or ectodomain
As shown below, each of these sequences has a reported percentage of EdU-negative value.

seq.string: MLLLLTLALLGGPTWAGKMYGPGGGKYFSTTEDYDHEITGLRVSVGLLLVKSVQVKLGDSWDVKLGALGGNTQEVTLQPGEYITKVFVAFQAFLRGMVMYTSKDRYFYFGKLDGQISSAYPSQEGQVLVGIYGQYQLLGIKSIGFEWNYPLEEPTTEPPVNLTYSANSPVGR [Q96DA0]
percentage of EdU-negative: 24.3%

seq.string: MQMPAMMSLLLVSVGLMEALQAQSHPITRRDLFSQEIQLDMALASFDDQYAGCAAAMTAALPDLNHTEFQANQVYADSWTLASSQWQERQARWPEWSLSPTRPSPPPLGFRDEHGVALLAYTANSPLHKEFNAAVREAGRSRAHYLHHFSFKTLHFLLTEALQLLGSGQRPPRCHQVFRGVHGLRFRPAGPRATVRLGGFASASLKHVAAQQFGEDTFFGIWTCLGAPIKGYSFFPGEEEVLIPPFETFQVINASRLAQGPARIYLRALGKHSTYNCEYIKDKKCKSGPCHLDNSAMGQSPLSAVWSLLLLLWFLVVRAFPDGPGLL
percentage of EdU-negative: 25%

seq.string: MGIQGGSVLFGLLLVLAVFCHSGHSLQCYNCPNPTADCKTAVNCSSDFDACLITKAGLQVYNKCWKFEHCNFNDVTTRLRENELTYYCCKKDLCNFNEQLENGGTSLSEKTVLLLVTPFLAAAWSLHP
percentage of EdU-negative: 25.8%

seq.string: MRLSWFRVLTVLSICLSAVATATGAEGKRKLQIGVKKRVDHCPIKSRKGDVLHMHYTGKLEDGTEFDSSLPQNQPFVFSLGTGQVIKGWDQGLLGMCEGEKRKLVIPSELGYGERGAPPKIPGGATLVFEVELLKIERRTEL
percentage of EdU-negative: 29.2%

---

# System: hTERT-HMEC
# measurement.notes: percentage of EdU-negative (G0-arrested) nuclei per well, 72 h; higher = more G0 arrest
# test.context: protein concentration 0.225 µM; reference: sequence is the full UniProt precursor, the tested protein was the secreted form or ectodomain
measurement.label: percentage of EdU-negative (%)

seq.string: MKLKLKNVFLAYFLVSIAGLLYALVQLGQPCDCLPPLRAAAEQLRQKDLRISQLQAELRRPPPAPAQPPEPEALPTIYVVTPTYARLVQKAELVRLSQTLSLVPRLHWLLVEDAEGPTPLVSGLLAASGLLFTHLVVLTPKAQRLREGEPGWVHPRGVEQRNKALDWLRGRGGAVGGEKDPPPPGTQGVVYFADDDNTYSRELFEEMRWTRGVSVWPVGLVGGLRFEGPQVQDGRVVGFHTAWEPSRPFPVDMAGFAVALPLLLDKPNAQFDSTAPRGHLESSLLSHLVDPKDLEPRAANCTRVLVWHTRTEKPKMKQEEQLQRQGRGSDPAIEV
readout.units: %
result: 9.73
//
seq.string: MLQLWKLVLLCGVLTGTSESLLDNLGNDLSNVVDKLEPVLHEGLETVDNTLKGILEKLKVDLGVLQKSSAWQLAKQKAQEAEKLLNNVISKLLPTNTDIFGLKISNSLILDVKAEPIDDGKGLNLSFPVTANVTVAGPIIGQIINLKASLDLLTAVTIETDPQTHQPVAVLGECASDPTSISLSLLDKHSQIINKFVNSVINTLKSTVSSLLQKEICPLIRIFIHSLDVNVIQQVVDNPQHKTQLQTLI [Q96DR5]
readout.units: %
result: 4.68
//
seq.string: MLTRLVLSAHLSSTTSPPWTHAAISWELDNVLMPSPRIWPQVTPTGRSASVRSEGNTSSLWNFSAGQDVHAIVTRTCESVLSSAVYTHGCGCVRSATNITCQSSGQQRQAARQEEENSICKAHDSREGRLGYPLSAHQPGSGGPN [Q8TAV5]
readout.units: %
result: 12.7
//
seq.string: MGRPRPRAAKTWMFLLLLGGAWAGHSRAQEDKVLGGHECQPHSQPWQAALFQGQQLLCGGVLVGGNWVLTAAHCKKPKYTVRLGDHSLQNKDGPEQEIPVVQSIPHPCYNSSDVEDHNHDLMLLQLRDQASLGSKVKPISLADHCTQPGQKCTVSGWGTVTSPRENFPDTLNCAEVKIFPQKKCEDAYPGQITDGMVCAGSSKGADTCQGDSGGPLVCDGALQGITSWGSDPCGRSDKPGVYTNICRYLDWIKKIIGSKG
readout.units: %
result: 5.28
//
seq.string: MQCWQQPFLRFLQQPFFLATASLAGSSSSFNVLIPKRDEDGDGEGPGDVTAGVSRAAGSPSGWEAPWVQQPRCCRRATPVCCAGQGPPRSLQQGGSEVLLGQLCSPEPDWLPSSGPKVAKQVFQVAAELLQHPEHFVPSSVPEGCVHKPGSTCDGSLKGRAYPSCVPKRDPEHSREESHPLSG [Q6UXR6]
readout.units: %
result: 4.95
//
seq.string: MARRSRHRLLLLLLRYLVVALGYHKAYGFSAPKDQQVVTAVEYQEAILACKTPKKTVSSRLEWKKLGRSVSFVYYQQTLQGDFKNRAEMIDFNIRIKNVTRSDAGKYRCEVSAPSEQGQNLEEDTVTLEVLVAPAVPSCEVPSSALSGTVVELRCQDKEGNPAPEYTWFKDGIRLLENPRLGSQSTNSSYTMNTKTGTLQFNTVSKLDTGEYSCEARNSVGYRRCPGKRMQVDDLNISGIIAAVVVVALVISVCGLGVCYAQRKGYFSKETSFQKSNSSSKATTMSENDFKHTKSFII
readout.units: %
result: 4.52
